assay.notes: Oral pharmacokinetic study in rats (released hydromorphone in plasma)
measurement.parameters: rat, oral, equimolar to 2.0 mg/kg hydromorphone; result in words
readout.label: hydromorphone plasma concentrations compared to unconjugated hydromorphone

Please review the entries below; each comes with its answer.
CN1CCC23c4c5ccc(OC(=O)c6ccccc6)c4OC2C(=O)CCC3C1C5 (stereo not shown) [3-Benzoate-HM, 3-benzoate-hydromorphone]	lower at all time points
CN1CCC23c4c5ccc(OC(=O)c6ccccc6)c4OC2C(OC(=O)c2ccccc2)=CCC3C1C5 (stereo not shown) [3,6-di-Benzoate-HM, 3,6-di-benzoate-hydromorphone]	lower at all time points
CC(=O)Oc1ccccc1C(=O)Oc1ccc2c3c1OC1C(=O)CCC4C(C2)N(C)CCC314 (stereo not shown) [Conjugate 3-Aspirin-HM, 3-aspirin-hydromorphone]	comparable
CC(=O)Oc1ccccc1C(=O)OC1=CC[C@H]2[C@H]3Cc4ccc(OC(=O)c5ccccc5OC(C)=O)c5c4[C@@]2(CCN3C)[C@H]1O5 [3,6-di-Aspirin-HM, 3,6-di-aspirin-hydromorphone]	comparable
CN1CCC23c4c5ccc(OC(=O)c6ccc(O)cc6)c4OC2C(=O)CCC3C1C5 (stereo not shown) [3-p-Salicylic-HM, 3-p-salicylic-hydromorphone]	lower at all time points

**Query** Endpoint output: hydromorphone plasma concentrations compared to unconjugated hydromorphone of CN1CCC23c4c5ccc(OC(=O)C=Cc6ccccc6)c4OC2C(=O)CCC3C1C5 (stereo not shown) [3-Cinnamate-HM, 3-cinnamate-hydromorphone] . Value?
**Result** lower at all time points

---

assay.notes: Oral pharmacokinetic study in rats (released hydromorphone in plasma)
measurement.parameters: rat, oral solution, dose equimolar to 2.0 mg/kg hydromorphone, plasma
readout.label: Cmax of hydromorphone released from the conjugate
Output should be the measured figure followed by the unit it is expressed in.

CC(=O)Oc1ccccc1C(=O)OC1=CC[C@H]2[C@H]3Cc4ccc(OC(=O)c5ccccc5OC(C)=O)c5c4[C@@]2(CCN3C)[C@H]1O5 [3,6-di-Aspirin-HM, 3,6-di-aspirin-hydromorphone]	36.5 ng/mL
CN1CCC23c4c5ccc(OC(=O)c6ccc(O)cc6)c4OC2C(=O)CCC3C1C5 (stereo not shown) [3-p-Salicylic-HM, 3-p-salicylic-hydromorphone]	17.2 ng/mL
CN1CCC23c4c5ccc(OC(=O)c6ccccc6)c4OC2C(OC(=O)c2ccccc2)=CCC3C1C5 (stereo not shown) [3,6-di-Benzoate-HM, 3,6-di-benzoate-hydromorphone]	11.3 ng/mL

**Query** Endpoint output: Cmax of hydromorphone released from the conjugate of CN1CCC23c4c5ccc(O)c4OC2C(OC(=O)c2ccccc2O)=CCC3C1C5 (stereo not shown) [6-o-Salicylate-HM, 6-o-salicylate-hydromorphone] . Value?
**Result** 14.1 ng/mL

**Query** Please do the same for CN1CC[C@]23c4c5ccc(OC(=O)c6ccccc6Nc6ccccc6)c4OC2C(=O)CC[C@H]3[C@H]1C5 (stereo partly shown) [3-Fenamate-HM, 3-fenamate-hydromorphone] as well.
**Result** 30.6 ng/mL

**Query** Please do the same for CN1CCC23c4c5ccc(OC(=O)C=Cc6ccccc6)c4OC2C(=O)CCC3C1C5 (stereo not shown) [3-Cinnamate-HM, 3-cinnamate-hydromorphone] as well.
**Result** 28.3 ng/mL

**Query** Please do the same for CN1CCC23c4c5ccc(OC(=O)c6ccccc6)c4OC2C(=O)CCC3C1C5 (stereo not shown) [3-Benzoate-HM, 3-benzoate-hydromorphone] as well.
**Result** 19.8 ng/mL

**Query** Please do the same for COc1ccc2cc(C(C)C(=O)OC3=CCC4C5Cc6ccc(O)c7c6C4(CCN5C)C3O7)ccc2c1 (stereo not shown) [6-Naproxen-HM, 6-naproxen-hydromorphone] as well.
**Result** 19.1 ng/mL

**Query** Please do the same for CC(=O)Oc1ccccc1C(=O)Oc1ccc2c3c1OC1C(=O)CCC4C(C2)N(C)CCC314 (stereo not shown) [Conjugate 3-Aspirin-HM, 3-aspirin-hydromorphone] as well.
**Result** 44.3 ng/mL

**Query** Please do the same for CN1CCC23c4c5ccc(OC(=O)c6ccncc6)c4OC2C(=O)CCC3C1C5 (stereo not shown) [3-Isoniacin-HM, 3-isoniacin-hydromorphone] as well.
**Result** 18.5 ng/mL
